- system-name: T1, human Amyloid beta 1-42 peptide (Homo sapiens, UniProt P05067)
- T1 construct: biotinylated human Amyloid beta 1-42 peptide (rpeptide, USA; cat: A1117); purchased rPeptide, USA A1117; host or cells: synthetic peptide
- T1 sequence (P05067 672-713): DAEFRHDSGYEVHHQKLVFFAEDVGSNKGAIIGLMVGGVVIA
- assay-notes: Surface Plasmon Resonance kinetic profiling of purified scFv (ProteOn)
- Format: binding
- test-context: biotinylated human Amyloid beta 1-42 on streptavidin chip
quantity-kind: kd (s⁻¹)
Answers are plain numbers, in s⁻¹.

molecule | unit-name | result
Abet0378: optimized anti-Aβ1-42 clone; amber stop codon at VL position 91 read as glutamine (protein, left off: small tags and cut ends, optimized anti-Aβ1-42 clone; amber stop codon at VL position 91 read as glutamine) scFv (part 1 of 2): EVQLLESGGGLVQPGGSLRLSCAASGFPFETDIMWWVRQAPGKGLEWVSVIGTNTDNVAYADSVKGRFTISRDNSKNTLYLQMNSLRAEDTAVYYCAREWMDHSRPYYYYGMDVWGQGTLVTVSS scFv (part 2 of 2): SYELTQPPSVSVSPGQTASITCSGHNLEDKFASWYQQKPGQSPVLVIYRDDKRPSGIPERFSASNSGHTATLTISGTQATDEADYYCSSQDTVTRVFGGGTKLTVL | s⁻¹ | 6.41e-05

Any idea what its kd is? The molecule is Abet0370: optimized anti-Aβ1-42 clone derived from Abet0144-GL (protein, left off: small tags and cut ends, optimized anti-Aβ1-42 clone derived from Abet0144-GL) scFv (part 1 of 2): EVQLLESGGGLVQPGGSLRLSCAASGFHFPMSAMWWVRQAPGKGLEWVSVIGETPERQAYADSVKGRFTISRDNSKSTLYLQMNSLRAEDTAVYYCAREWMDHSRPYYYYGMDVWGQGTLVTVSS scFv (part 2 of 2): SYELTQPPSVSVSPGQTASITCTTPHFNSKFASWYQQKPGQSPVLVIYRDDKRPSGIPERFSASNSGHTATLTISGTQAMDEADYYCQAQDSTTRVFGGGTRLTVL
7.76e-05
